# Tested on: HepG2 tumor cell line
# measurement_description: MTT cytotoxicity assay, HepG2
# Assay type: cell-based, human
# experimental_parameters: Homo sapiens, HepG2; 48 h, MTT, mean ± SD
Listing of entries alongside the reported IC50.
Report as a plain number; the unit µM is understood.

COC(=O)c1cc(O)n(-c2cccc(Br)n2)n1 :: 29.8
COC(=O)C1=NN(c2cccc(Br)n2)C2(C(C(=O)OC)=NN(c3cccc(Br)n3)C2O)C1(C(=O)OC)c1c(C(=O)OC)nn(-c2cccc(Br)n2)c1O (centres unmarked) :: 10.7
COC(=O)C1=NN(c2cccc(Br)n2)C(=O)C1(c1c(C(=O)OC)nn(-c2cccc(Br)n2)c1O)c1c(C(=O)OC)nn(-c2cccc(Br)n2)c1O :: 54.7
COC(=O)C1=NN(c2cccc(Br)n2)C2(C(C(=O)O)=NN(c3cccc(Br)n3)C2O)C1(C(=O)OC)c1c(C(=O)OC)nn(-c2cccc(Br)n2)c1O (centres unmarked) :: 175

Kindly review the next compound as well.
Query block: Fill blank: measured IC50 of the compound COC(=O)c1cc(OC(C)=O)n(-c2cccc(Br)n2)n1 is ____.
Result block: 37.1

----------
Some molecules, each annotated with its measured Cytotoxicity toward HepG2 enhanced compared with normal liver cell HL-7702.
# Tested on: HepG2 tumor cell line
# measurement_description: MTT cytotoxicity assay, HepG2
# Format: cell-based, human
# experimental_parameters: ratio of IC50 HL-7702 to IC50 HepG2
Reply with just the number (in times).

Would you please look over these solved cases?
COC(=O)c1cc(OC(C)=O)n(-c2cccc(Br)n2)n1 :: 2.98
COC(=O)C1=NN(c2cccc(Br)n2)C2(C(C(=O)OC)=NN(c3cccc(Br)n3)C2O)C1(C(=O)OC)c1c(C(=O)OC)nn(-c2cccc(Br)n2)c1O (stereo not shown) :: 9.02
COC(=O)c1cc(O)n(-c2cccc(Br)n2)n1 :: 3.98

Shift focus to the following entry.
Query block: Give the reported Cytotoxicity toward HepG2 enhanced compared with normal liver cell HL-7702 for COC(=O)C1=NN(c2cccc(Br)n2)C(=O)C1(c1c(C(=O)OC)nn(-c2cccc(Br)n2)c1O)c1c(C(=O)OC)nn(-c2cccc(Br)n2)c1O (system: HepG2 tumor cell line).
Result block: 2.76

----------
# System: BEL-7404 tumor cell line
# measurement_description: MTT cytotoxicity assay, BEL-7404
# Assay type: cell-based, human
# experimental_parameters: Homo sapiens, BEL-7404; 48 h, MTT, mean ± SD
Listed below: pIC50 values for each entry.
Just so you know, pIC50 here is -log10 of the concentration in molar units; reply with that number alone.

Worked cases, pIC50 given:
COC(=O)c1cc(OC(C)=O)n(-c2cccc(Br)n2)n1 :: 4.18
COC(=O)C1=NN(c2cccc(Br)n2)C2(C(C(=O)O)=NN(c3cccc(Br)n3)C2O)C1(C(=O)OC)c1c(C(=O)OC)nn(-c2cccc(Br)n2)c1O (centres unmarked) :: 4.07
COC(=O)C1=NN(c2cccc(Br)n2)C(=O)C1(c1c(C(=O)OC)nn(-c2cccc(Br)n2)c1O)c1c(C(=O)OC)nn(-c2cccc(Br)n2)c1O :: 3.95
COC(=O)c1cc(O)n(-c2cccc(Br)n2)n1 :: 3.90

Attention now shifts to the item below.
Query block: Field: pIC50 (BEL-7404 tumor cell line). Entry: COC(=O)C1=NN(c2cccc(Br)n2)C2(C(C(=O)OC)=NN(c3cccc(Br)n3)C2O)C1(C(=O)OC)c1c(C(=O)OC)nn(-c2cccc(Br)n2)c1O (centres unmarked)
Result block: 4.38

These data points were gathered from paper PMC6150270.
